Target: Peptidyl-glycine alpha-amidating monooxygenase (Homo sapiens)
Sequence (P19021 whole entry): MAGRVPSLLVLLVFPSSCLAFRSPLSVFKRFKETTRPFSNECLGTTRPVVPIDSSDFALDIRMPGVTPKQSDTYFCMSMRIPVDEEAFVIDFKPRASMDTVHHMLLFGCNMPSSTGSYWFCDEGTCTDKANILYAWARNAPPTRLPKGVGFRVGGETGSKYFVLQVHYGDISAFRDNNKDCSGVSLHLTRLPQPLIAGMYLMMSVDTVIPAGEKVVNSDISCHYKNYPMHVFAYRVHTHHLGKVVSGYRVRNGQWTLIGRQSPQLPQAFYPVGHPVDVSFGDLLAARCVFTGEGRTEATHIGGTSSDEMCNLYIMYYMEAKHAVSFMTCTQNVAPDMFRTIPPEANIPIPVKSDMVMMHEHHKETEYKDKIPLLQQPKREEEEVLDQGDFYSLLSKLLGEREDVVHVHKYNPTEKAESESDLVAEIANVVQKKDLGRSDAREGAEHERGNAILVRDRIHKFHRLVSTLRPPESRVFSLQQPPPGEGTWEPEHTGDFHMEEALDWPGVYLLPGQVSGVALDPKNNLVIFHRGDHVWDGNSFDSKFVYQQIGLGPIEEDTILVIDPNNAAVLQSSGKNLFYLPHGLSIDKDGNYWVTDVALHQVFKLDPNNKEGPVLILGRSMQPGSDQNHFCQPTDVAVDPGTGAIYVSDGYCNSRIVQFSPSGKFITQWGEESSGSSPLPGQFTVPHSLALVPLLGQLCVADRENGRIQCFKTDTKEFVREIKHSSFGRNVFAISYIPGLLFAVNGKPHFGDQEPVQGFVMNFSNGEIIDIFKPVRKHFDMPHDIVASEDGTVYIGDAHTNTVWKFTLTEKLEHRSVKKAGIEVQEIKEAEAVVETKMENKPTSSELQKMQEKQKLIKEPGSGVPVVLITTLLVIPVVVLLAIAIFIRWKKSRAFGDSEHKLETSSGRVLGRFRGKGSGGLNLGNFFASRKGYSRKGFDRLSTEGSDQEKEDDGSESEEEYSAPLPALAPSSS
Assay: Competitive inhibition of PAM in human DMS53 cells using as(R)-Tyr-(S)-Val-Gly as substrate after 2 hrs by HPLC analysis
Assay type: cell-based, DMS-53
Doc: threshold 400 µM (exclusive). Items with IC50 beneath it return Condition met; others return Condition not met.

Entry smiles	Assigned label
CC(=O)OCC(=O)O	Condition not met
CC(=O)N[C@@H](CC(C)C)C(=O)NCC(=O)OCC(=O)O	Condition met
O=C(O)COC(=O)[C@@H]1CCCN1	Condition not met
N[C@@H](Cc1ccccc1)C(=O)OCC(=O)O	Condition not met
C[C@H](N)C(=O)N1CCC[C@H]1C(=O)OCC(=O)O	Condition met
C[C@H](NC(=O)CN)C(=O)N1CCC[C@H]1C(=O)OCC(=O)O	Condition not met
C[C@H](N)C(=O)N[C@@H](Cc1ccccc1)C(=O)OCC(=O)O	Condition met
CC(=O)NCC(=O)OCC(=O)O	Condition met
C[C@H](NC(=O)CN)C(=O)N[C@@H](Cc1ccccc1)C(=O)OCC(=O)O	Condition not met
